Value source: ChEMBL document CHEMBL1201862

# Test system: A549
# assayMethodText: NCI tumour cell line growth inhibition, 48 h
Calls of active or inactive are those of the source. Rule as the data show it: active = GI50 up to about 1.1 µM and inactive = higher.
Answer with one of the outcomes given here: class 1 (active), class 0 (inactive)

>>> qualitativelabel("O=C1c2ccccc2C(=O)c2c1ccc1c2OCO1")
"class 0"

Task: Which result was noted for this compound in the test: CC(=O)O[C@H]1C(=O)[C@@]2(C)[C@H]([C@H](OC(=O)c3cccc(C(F)(F)F)c3)[C@]3(O)C[C@H](OC(=O)[C@H](O)[C@@H](NC(=O)c4ccccc4)c4ccccc4)C(C)=C1C3(C)C)[C@]1(OC(C)=O)CO[C@@H]1C[C@@H]2O
Result: class 1

Task: Which result was noted for this compound in the test: CCn1c(=O)c2c3ccc(OC(C)=O)cc3[nH]c2c2ccc(OC(C)=O)cc21
Result: class 0

Task: Which result was noted for this compound in the test: c1ccc(C(c2ccccc2)[P+](c2ccccc2)(c2ccccc2)c2ccccc2)cc1
Result: class 1

Task: Which result was noted for this compound in the test: S=c1oc(CCCCCCCCc2nn(CNc3ccccc3)c(=S)o2)nn1CNc1ccccc1
Result: class 0
